Listing of recorded IC50 by entry.
Biological target: BRM (Homo sapiens, UniProt P51531)
Sequence (P51531 whole entry): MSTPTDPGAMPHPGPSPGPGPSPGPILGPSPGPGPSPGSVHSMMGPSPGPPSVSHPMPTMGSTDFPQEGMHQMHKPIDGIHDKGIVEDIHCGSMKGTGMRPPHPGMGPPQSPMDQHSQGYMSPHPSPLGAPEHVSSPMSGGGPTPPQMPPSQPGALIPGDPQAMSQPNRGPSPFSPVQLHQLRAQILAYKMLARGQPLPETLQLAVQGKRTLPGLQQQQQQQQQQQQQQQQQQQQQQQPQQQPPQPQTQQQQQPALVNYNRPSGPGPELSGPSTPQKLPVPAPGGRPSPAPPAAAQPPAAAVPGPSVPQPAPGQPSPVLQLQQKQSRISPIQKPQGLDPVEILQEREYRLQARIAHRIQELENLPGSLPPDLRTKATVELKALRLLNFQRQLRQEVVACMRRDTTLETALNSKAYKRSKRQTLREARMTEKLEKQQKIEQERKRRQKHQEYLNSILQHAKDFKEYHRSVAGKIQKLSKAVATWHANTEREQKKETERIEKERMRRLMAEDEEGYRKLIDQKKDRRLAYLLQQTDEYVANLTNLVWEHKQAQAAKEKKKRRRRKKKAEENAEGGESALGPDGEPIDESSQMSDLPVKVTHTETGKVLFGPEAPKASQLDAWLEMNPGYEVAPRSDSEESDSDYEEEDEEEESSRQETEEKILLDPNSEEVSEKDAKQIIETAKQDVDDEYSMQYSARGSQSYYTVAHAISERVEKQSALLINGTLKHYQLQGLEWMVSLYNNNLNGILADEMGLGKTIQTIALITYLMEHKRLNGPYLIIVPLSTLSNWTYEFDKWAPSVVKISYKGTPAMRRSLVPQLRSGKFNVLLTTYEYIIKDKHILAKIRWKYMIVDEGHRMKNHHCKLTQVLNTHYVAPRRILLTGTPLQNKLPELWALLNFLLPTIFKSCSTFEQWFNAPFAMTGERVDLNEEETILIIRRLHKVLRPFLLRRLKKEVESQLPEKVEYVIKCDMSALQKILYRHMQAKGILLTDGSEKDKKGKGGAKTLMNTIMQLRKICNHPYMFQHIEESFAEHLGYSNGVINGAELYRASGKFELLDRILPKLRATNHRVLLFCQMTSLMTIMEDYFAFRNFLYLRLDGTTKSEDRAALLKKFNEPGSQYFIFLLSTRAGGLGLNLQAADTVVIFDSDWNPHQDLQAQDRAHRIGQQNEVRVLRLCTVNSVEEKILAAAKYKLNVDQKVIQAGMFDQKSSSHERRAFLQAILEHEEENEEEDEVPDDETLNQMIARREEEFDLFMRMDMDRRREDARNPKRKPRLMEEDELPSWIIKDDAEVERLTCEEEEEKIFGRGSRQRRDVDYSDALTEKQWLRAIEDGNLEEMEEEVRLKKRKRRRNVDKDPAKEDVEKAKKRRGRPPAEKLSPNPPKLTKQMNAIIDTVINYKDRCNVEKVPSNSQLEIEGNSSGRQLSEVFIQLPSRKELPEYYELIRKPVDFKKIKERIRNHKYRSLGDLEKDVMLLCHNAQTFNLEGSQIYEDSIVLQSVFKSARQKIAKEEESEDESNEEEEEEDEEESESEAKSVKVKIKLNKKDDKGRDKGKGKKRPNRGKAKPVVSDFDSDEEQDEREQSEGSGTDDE
Test: ATPase catalytic activity assay of BRM (ADP-Glo)
Format: biochemical
Conditions: read-out: BRM IC50 (μM)*

Previously resolved entries follow.
{"STRUCTURE NOTATION": "Cc1nccc(-c2cccc(-c3csc(NC(=O)CNC(=O)c4ccc5c(c4)[C@@](C)(C#N)CC5)n3)n2)n1", "MEASUREMENT TYPE": "IC50", "VALUE REPORTED": "0.1 to 1 µM"}
{"STRUCTURE NOTATION": "Cc1cnc(O)c(-c2cccc(-c3csc(NC(=O)CNC(=O)c4ccc5c(c4)[C@](C)(CO)CC5)n3)n2)c1", "MEASUREMENT TYPE": "IC50", "VALUE REPORTED": "0.1 to 1 µM"}
{"STRUCTURE NOTATION": "CC(C)(CN)c1cccc(C(=O)NCC(=O)Nc2nc(-c3cccc(-c4cc(C#N)cc(CO)c4)c3)cs2)c1", "MEASUREMENT TYPE": "IC50", "VALUE REPORTED": "0.1 to 1 µM"}

Read the next record carefully.
Query string: Requested read-out: IC50. Entry: C[C@@H]1CN(c2cccc(-c3csc(NC(=O)CNC(=O)c4ccc5c(c4)[C@](C#N)(CO)CC5)n3)n2)C[C@H](C)O1
Result string: < 0.1 µM
